Source listed as paper PMC5788402.

- target-under-test: VCB / Brd4^BD2 ternary complex (Homo sapiens, UniProt O60885+P40337)
- assay-details: ITC ternary titration, VCB into Brd4^BD2–PROTAC complex
- Assay type: binding
- test-parameters: ternary; VCB in syringe, Brd4^BD2–PROTAC in cell
Please go through the items and note down their stoichiometry N.
Please give only the number in your answer, with no unit.

Need stoichiometry N, item Cc1ncsc1-c1ccc(CNC(=O)[C@@H]2C[C@@H](O)CN2C(=O)[C@@H](NC(=O)COCCOCCNC(=O)C[C@@H]2N=C(c3ccc(Cl)cc3)c3c(sc(C)c3C)-n3c(C)nnc32)C(C)(C)C)cc1 0.76

// repeat for CC(=O)N1c2ccc(-c3ccc(C(=O)NCCOCCOCCOCC(=O)N[C@H](C(=O)N4C[C@H](O)C[C@H]4C(=O)NCc4ccc(-c5scnc5C)cc4)C(C)(C)C)cc3)cc2[C@H](Nc2ccc(Cl)cc2)C[C@@H]1C and report 1.44

* * *

- target-under-test: VCB / Brd4^BD2 ternary complex (Homo sapiens, UniProt O60885+P40337)
- assay-details: ITC ternary titration, VCB into Brd4^BD2–PROTAC complex
- Type: binding
- test-parameters: cooperativity, ratio between binary and ternary Kd; Brd4^BD2
measurement-kind: α
Answer with a number only.

Return reported α; argument: Cc1ncsc1-c1ccc(CNC(=O)[C@@H]2C[C@@H](O)CN2C(=O)[C@@H](NC(=O)COCCOCCNC(=O)C[C@@H]2N=C(c3ccc(Cl)cc3)c3c(sc(C)c3C)-n3c(C)nnc32)C(C)(C)C)cc1 5.7

Entry to check: CC(=O)N1c2ccc(-c3ccc(C(=O)NCCOCCOCCOCCOCC(=O)N[C@H](C(=O)N4C[C@H](O)C[C@H]4C(=O)NCc4ccc(-c5scnc5C)cc4)C(C)(C)C)cc3)cc2[C@H](Nc2ccc(Cl)cc2)C[C@@H]1C 0.6

Same question, CC(=O)N1c2ccc(-c3ccc(C(=O)NCCOCCOCCOCC(=O)N[C@H](C(=O)N4C[C@H](O)C[C@H]4C(=O)NCc4ccc(-c5scnc5C)cc4)C(C)(C)C)cc3)cc2[C@H](Nc2ccc(Cl)cc2)C[C@@H]1C this time 0.5

// next record CC(=O)N1c2ccc(-c3ccc(C(=O)NCCOCCOCC(=O)N[C@H](C(=O)N4C[C@H](O)C[C@H]4C(=O)NCc4ccc(-c5scnc5C)cc4)C(C)(C)C)cc3)cc2[C@H](Nc2ccc(Cl)cc2)C[C@@H]1C 0.2

Same question for Cc1ncsc1-c1ccc(CNC(=O)[C@@H]2C[C@@H](O)CN2C(=O)[C@@H](NC(=O)COCCOCCOCCOCCNC(=O)C[C@@H]2N=C(c3ccc(Cl)cc3)c3c(sc(C)c3C)-n3c(C)nnc32)C(C)(C)C)cc1 please. 4.7

* * *

For each record, write down the corresponding stoichiometry N.
- target-under-test: VHL-EloC-EloB protein (VCB) (Homo sapiens, UniProt P40337)
- assay-details: ITC binary titration, VCB into PROTAC
- Format: binding
- test-parameters: VCB in syringe, PROTAC in cell
Reply with the value as a number alone.

Suppose we examine the compound Cc1ncsc1-c1ccc(CNC(=O)[C@@H]2C[C@@H](O)CN2C(=O)[C@@H](NC(=O)COCCOCCNC(=O)C[C@@H]2N=C(c3ccc(Cl)cc3)c3c(sc(C)c3C)-n3c(C)nnc32)C(C)(C)C)cc1 [compound 5] ; what stoichiometry N value has been reported? 0.8

Can you handle CC(=O)N1c2ccc(-c3ccc(C(=O)NCCOCCOCCOCC(=O)N[C@H](C(=O)N4C[C@H](O)C[C@H]4C(=O)NCc4ccc(-c5scnc5C)cc4)C(C)(C)C)cc3)cc2[C@H](Nc2ccc(Cl)cc2)C[C@@H]1C [compound 9] next? 0.96

Would you mind doing CC(=O)N1c2ccc(-c3ccc(C(=O)NCCOCCOCCOCCOCC(=O)N[C@H](C(=O)N4C[C@H](O)C[C@H]4C(=O)NCc4ccc(-c5scnc5C)cc4)C(C)(C)C)cc3)cc2[C@H](Nc2ccc(Cl)cc2)C[C@@H]1C [compound 10] as well? 0.92
